# Test system: Stellaria media
# protocol description: Herbicidal activity, preemergence test
# Type: in vivo
# measurement setup: pre; sprayed onto soil, 800 g of active material per hectare; evaluated 3 weeks after treatment
Answer each item with its documented STEME control rating (0-9).

Lookup result for C[C@H](NC(=O)c1nnc(-c2cc(Cl)cc(Cl)c2)o1)c1ccccc1 [Example 28] ; measured STEME control rating (0-9): 0 (no effect)

// C[C@H](NC(=O)c1nnc(-c2ccc(Cl)c(Cl)c2)o1)c1ccccc1 [Example 27] : STEME control rating (0-9) value = 0 (no effect)

The reported STEME control rating (0-9) of the molecule O=C(NCc1ccccc1)c1nnc(-c2ccc(F)cc2)o1 [Example 9] was 0 (no effect)

The recorded STEME control rating (0-9) for C[C@H](NC(=O)c1nnc(-c2ccc(C(C)(C)C)cc2)o1)c1ccccc1 [Example 16] is 6 (herbicidal effect)

// recorded STEME control rating (0-9) for C[C@H](NC(=O)c1nnc(-c2ccccc2F)o1)c1ccccc1 [Example 10] : 9 (complete kill)

---

# Test system: Gossypium hirsutum
# protocol description: Herbicidal activity, postemergence test
# Assay type: in vivo
# measurement setup: post; sprayed onto seedling plants, 800 g of active material per hectare; evaluated 2 weeks after treatment
# Experimental: […] Results of herbicide evaluation are expressed on a rating scale (0-9). […] Preemergence and postemergence treatments are evaluated at 3 and 2 weeks after treatment, respectively.
readout label: GOSHI control rating (0-9)

GOSHI control rating (0-9) reading for `O=C(NCc1cccs1)c1nnc(-c2ccccc2F)o1` : 1 (trace effect)

Recorded result, `C[C@H](NC(=O)c1nnc(-c2ccc(C(F)(F)F)cc2)o1)c1ccccc1` , GOSHI control rating (0-9): 9 (complete kill)

GET /value?item= `C[C@H](NC(=O)c1nnc(-c2ccccc2F)o1)c1ccccc1` &field=GOSHI control rating (0-9) returns 8 (approaching complete kill)

The compound listed as `C[C@H](NC(=O)c1nnc(-c2cc(Cl)cc(Cl)c2)o1)c1ccccc1` shows GOSHI control rating (0-9) equal to 0 (no effect)

Entry under test: `C[C@H](NC(=O)c1nnc(N(C)C)o1)c1ccccc1` . Its GOSHI control rating (0-9) was 2 (slight effect)

So for `C[C@H](NC(=O)c1nnc(-c2ccccc2)o1)c1ccccc1` , the logged GOSHI control rating (0-9) turned out to be 9 (complete kill)

GET /value?item= `C[C@H](NC(=O)c1nnc(-c2ccc(C(C)(C)C)cc2)o1)c1ccccc1` &field=GOSHI control rating (0-9) returns 9 (complete kill)

Recorded GOSHI control rating (0-9) (compound `C[C@H](NC(=O)c1nnc(-c2c(F)cccc2F)o1)c1ccccc1` ): 8 (approaching complete kill)

So, `C[C@H](NC(=O)c1nnc(C=Cc2ccccc2)o1)c1ccccc1` ? Its GOSHI control rating (0-9) was 3 (moderate effect)

The compound listed as CC(NC(=O)c1nnc(C(C)(C)C)o1)c1cccs1 (racemic) shows GOSHI control rating (0-9) equal to 9 (complete kill)

Given item `C[C@H](NC(=O)c1nnc(-c2ccc(F)cc2F)o1)c1ccccc1` , the value recorded as its GOSHI control rating (0-9) is 9 (complete kill)

Sample `O=C(NCc1ccccc1)c1nnc(-c2ccc(F)cc2)o1` ; GOSHI control rating (0-9) observed: 0 (no effect)

Just so you know, measured GOSHI control rating (0-9) for `C[C@H](NC(=O)c1nnc(-c2c(Cl)cccc2Cl)o1)c1ccccc1` came out at 0 (no effect)

The recorded GOSHI control rating (0-9) for `C[C@H](NC(=O)c1nnc(-c2ccc(Cl)c(Cl)c2)o1)c1ccccc1` is 2 (slight effect)

So for `C[C@H](NC(=O)c1nnc(-c2ccc(F)cc2)o1)c1ccccc1` , the logged GOSHI control rating (0-9) turned out to be 9 (complete kill)

Value source: patent EP0726263A2
